Target under test: CRBN-DDB1 (Homo sapiens (Human), UniProt Q96SW2)
Sequence (Q96SW2 whole entry): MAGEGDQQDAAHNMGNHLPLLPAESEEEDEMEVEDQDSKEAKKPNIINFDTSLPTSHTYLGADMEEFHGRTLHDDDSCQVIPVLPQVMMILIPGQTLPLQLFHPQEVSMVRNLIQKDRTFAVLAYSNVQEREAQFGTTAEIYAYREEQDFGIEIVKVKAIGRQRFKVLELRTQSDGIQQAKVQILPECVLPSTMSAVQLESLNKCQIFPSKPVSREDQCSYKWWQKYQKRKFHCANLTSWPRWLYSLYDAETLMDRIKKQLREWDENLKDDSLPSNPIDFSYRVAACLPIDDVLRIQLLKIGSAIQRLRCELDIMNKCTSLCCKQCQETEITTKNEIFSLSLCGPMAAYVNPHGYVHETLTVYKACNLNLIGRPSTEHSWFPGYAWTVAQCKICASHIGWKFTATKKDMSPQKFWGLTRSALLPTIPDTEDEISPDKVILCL
Sequence (Q16531 whole entry partner): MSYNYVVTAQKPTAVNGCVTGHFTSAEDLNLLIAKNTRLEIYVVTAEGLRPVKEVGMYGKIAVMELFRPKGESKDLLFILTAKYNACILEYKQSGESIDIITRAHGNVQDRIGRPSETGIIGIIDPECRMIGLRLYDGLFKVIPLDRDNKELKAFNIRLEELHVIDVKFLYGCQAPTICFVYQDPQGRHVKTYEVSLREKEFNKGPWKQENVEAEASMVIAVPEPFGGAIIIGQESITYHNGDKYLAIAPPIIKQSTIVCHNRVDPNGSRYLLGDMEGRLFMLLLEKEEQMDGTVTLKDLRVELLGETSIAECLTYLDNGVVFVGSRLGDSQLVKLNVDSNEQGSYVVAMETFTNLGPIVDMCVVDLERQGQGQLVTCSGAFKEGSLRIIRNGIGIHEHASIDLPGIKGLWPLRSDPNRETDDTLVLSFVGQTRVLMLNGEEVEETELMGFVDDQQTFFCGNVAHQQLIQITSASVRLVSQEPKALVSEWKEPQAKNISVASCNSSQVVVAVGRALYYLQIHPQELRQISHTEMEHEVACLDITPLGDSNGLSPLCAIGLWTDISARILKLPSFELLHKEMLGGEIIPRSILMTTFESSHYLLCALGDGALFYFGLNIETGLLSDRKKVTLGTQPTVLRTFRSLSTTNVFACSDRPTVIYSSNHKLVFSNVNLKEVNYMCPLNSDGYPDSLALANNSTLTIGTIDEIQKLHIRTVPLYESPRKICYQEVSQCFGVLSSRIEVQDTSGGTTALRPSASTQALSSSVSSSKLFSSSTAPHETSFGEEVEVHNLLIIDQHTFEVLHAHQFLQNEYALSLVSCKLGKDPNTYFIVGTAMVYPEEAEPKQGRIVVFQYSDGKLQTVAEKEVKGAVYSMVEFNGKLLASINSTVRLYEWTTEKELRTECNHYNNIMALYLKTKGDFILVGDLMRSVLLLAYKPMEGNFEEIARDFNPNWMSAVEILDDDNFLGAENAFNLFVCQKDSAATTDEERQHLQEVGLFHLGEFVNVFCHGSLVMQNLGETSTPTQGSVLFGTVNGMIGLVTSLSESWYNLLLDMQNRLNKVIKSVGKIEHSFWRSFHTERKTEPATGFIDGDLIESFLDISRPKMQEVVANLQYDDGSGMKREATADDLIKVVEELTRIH
Assay explanation: Fluorescence polarization (FP) assay for compound ligand binding to CRBN-DDB1
Condition description: FP displacement of (−)-Thalidomide-Alexa Fluor or Pomalidomide-fluorescein probe (5 nM), 400 nM CRBN-DDB1, 60 min room temperature; Degrons, Compounds of the Present Invention
pKd: −log10 of the molar value.
Assay readout: pKd

INSERT INTO assay_data (compound, result) VALUES
  ('Cn1nc(NC2CCC(=O)NC2=O)c2ccccc21 (stereo not drawn) [Compound 116]', '4.30 to 5.00'),
  ('O=C1CCC(Nc2cccc(CN3CCCCC3)c2)C(=O)N1 (stereo not drawn) [Compound 72]', '4.30 to 5.00'),
  ('O=C1CCC(Nc2cnn(C3CCNCC3)c2)C(=O)N1 (stereo not drawn) [Compound 94]', '4.30 to 5.00'),
  ('O=C1CCC(Nc2cc(C(=O)N3CCCC3)ccn2)C(=O)N1 (stereo not drawn) [Compound 119]', '4.00 to 4.30');

What does the data say about its pKd? Entry: O=C1CCC(Nc2c(F)cccc2F)C(=O)N1 (stereo not drawn) [Compound 63]
4.30 to 5.00

Using the record for Cn1cnc2cc(NC3CCC(=O)NC3=O)ccc21 (stereo not drawn) [Compound 78] , report its pKd.
4.30 to 5.00

Param item = CN(CC(=O)Nc1ccccc1)C1CCC(=O)NC1=O (stereo not drawn) [Compound 108] ; retrieve measured pKd.
4.30 to 5.00

Which pKd value is on record for O=C1CCC(Nc2ccn(-c3ccccc3)n2)C(=O)N1 (stereo not drawn) [Compound 114] ?
4.30 to 5.00

Value lookup for pKd; key = CN(C1CN(c2ccccc2)C1)C1CCC(=O)NC1=O (stereo not drawn) [Compound 103]
4.30 to 5.00

---

Target under test: CRBN-DDB1 (Homo sapiens (Human))
Assay explanation: Fluorescence polarization (FP) assay for compound ligand binding to CRBN-DDB1
Condition description: FP displacement of (−)-Thalidomide-Alexa Fluor or Pomalidomide-fluorescein probe (5 nM), 400 nM CRBN-DDB1, 60 min room temperature; Additional Compounds of the Present Invention
pKd: −log10 of the molar value.
Assay readout: pKd

Before answering, review these 5 worked examples.
INSERT INTO assay_data (compound, result) VALUES
  ('Cn1cnc2cc(OC3CCC(=O)NC3=O)ccc21 (centres unmarked)', '4.30 to 5.00'),
  ('O=C1CCC(Nc2ccc3cccnc3c2)C(=O)N1 (centres unmarked)', '4.30 to 5.00'),
  ('O=C1CC[C@@H](O[C@H]2CCN(c3ccccc3)C2=O)C(=O)N1 (single isomer, unassigned)', '4.00 to 4.30'),
  ('Cc1ccn(-c2ccc(OC3CCC(=O)NC3=O)cc2)n1 (centres unmarked)', '4.30 to 5.00'),
  ('CC(C)(C)OC(=O)N1CCN(c2ccc(COC3CCC(=O)NC3=O)cc2)CC1 (centres unmarked)', '4.30 to 5.00');

What does the record list as pKd for O=C1CC[C@H](O[C@H]2CCN(c3ccccc3)C2=O)C(=O)N1 (single isomer, unassigned) ?
4.30 to 5.00

So what does the record say about pKd for COC(=O)c1ccccc1OC1CCC(=O)NC1=O (centres unmarked) ?
4.00 to 4.30

Requested field: pKd. Item: Cn1nc(NC2CCC(=O)NC2=O)cc1-c1ccccc1 (centres unmarked)
4.30 to 5.00
